# System: HeLa Kyoto;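 further: HeLa Kyoto cells arrested at G1/S by double thymidine block, proteins quantified by TMT10plex mass spectrometry in mild NP-40 versus SDS extracts, three biological replicates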
# Experimental protocol: solubility in G1/S (NP-40 vs SDS abundance) (log2 ratio); higher = more soluble
# Condition info: cell cycle stage: G1/S
Measurement type: solubility in G1/S (log2)
Respond with the number and no other words.

The cases that follow already have their solubility in G1/S (log2) on record.
MELSAEYLREKLQRDLEAEHVEVEDTTLNRCSCSFRVLVVSAKFEGKPLLQRHRLVNACLAEELPHIHAFEQKTLTPDQWARERQK [BOLA2]	-0.0477
MSLQWTAVATFLYAEVFVVLLLCIPFISPKRWQKIFKSRLVELLVSYGNTFFVVLIVILVLLVIDAVREIRKYDDVTEKVNLQNNPGAMEHFHMKLFRAQRNLYIAGFSLLLSFLLRRLVTLISQQATLLASNEAFKKQAESASEAAKKYMEENDQLKKGAAVDGGKLDVGNAEVKLEEENRSLKADLQKLKDELASTKQKLEKAENQVLAMRKQSEGLTKEYDRLLEEHAKLQAAVDGPMDKKEE [BCAP31]	0.132
MAATAAEAVASGSGEPREEAGALGPAWDESQLRSYSFPTRPIPRLSQSDPRAEELIENEEPVVLTDTNLVYPALKWDLEYLQENIGNGDFSVYSASTHKFLYYDEKKMANFQNFKPRSNREEMKFHEFVEKLQDIQQRGGEERLYLQQTLNDTVGRKIVMDFLGFNWNWINKQQGKRGWGQLTSNLLLIGMEGNVTPAHYDEQQNFFAQIKGYKRCILFPPDQFECLYPYPVHHPCDRQSQVDFDNPDYERFPNFQNVVGYETVVGPGDVLYIPMYWWHHIESLLNGGITITVNFWYKGAPTPKRIEYPLKAHQKVAIMRNIEKMLGEALGNPQEVGPLLNTMIKGRYN [HIF1AN]	0.273
MAAPSGGVNCEEFAEFQELLKVMRTIDDRIVHELNTTVPTASFAGKIDASQTCKQLYESLMAAHASRDRVIKNCIAQTSAVVKNLREEREKNLDDLTLLKQLRKEQTKLKWMQSELNVEEVVNDRSWKVFNERCRIHFKPPKNE [CCDC58]	0.6
MASGVGAAFEELPHDGTCDECEPDEAPGAEEVCRECGFCYCRRHAEAHRQKFLSHHLAEYVHGSQAWTPPADGEGAGKEEAEVKVEQEREIESEAGEESESEEESESEEESETEEESEDESDEESEEDSEEEMEDEQESEAEEDNQEEGESEAEGETEAESEFDPEIEMEAERVAKRKCPDHGLDLSTYCQEDRQLICVLCPVIGAHQGHQLSTLDEAFEELRSKDSGGLKAAMIELVERLKFKSSDPKVTRDQMKMFIQQEFKKVQKVIADEEQKALHLVDIQEAMATAHVTEILADIQSHMDRLMTQMAQAKEQLDTSNESAEPKAEGDEEGPSGASEEEDT [TRIM44]	-0.118

## Input What solubility in G1/S (log2) value was documented for this sequence, MAANKPKGQNSLALHKVIMVGSGGVGKSALTLQFMYDEFVEDYEPTKADSYRKKVVLDGEEVQIDILDTAGQEDYAAIRDNYFRSGEGFLCVFSITEMESFAATADFREQILRVKEDENVPFLLVGNKSDLEDKRQVSVEEAKNRAEQWNVNYVETSAKTRANVDKVFFDLMREIRARKMEDSKEKNGKKKRKSLAKRIRERCCIL [RALA] ?
## Output 0.0126

## Input Now give it for MRRAELAGLKTMAWVPAESAVEELMPRLLPVEPCDLTEGFDPSVPPRTPQEYLRRVQIEAAQCPDVVVAQIDPKKLKRKQSVNISLSGCQPAPEGYSPTLQWQQQQVAQFSTVRQNVNKHRSHWKSQQLDSNVTMPKSEDEEGWKKFCLGEKLCADGAVGPATNESPGIDYVQIGFPPLLSIVSRMNQATVTSVLEYLSNWFGERDFTPELGRWLYALLACLEKPLLPEAHSLIRQLARRCSEVRLLVDSKDDERVPALNLLICLVSRYFDQRDLADEPS [GEMIN2] too.
## Output 0.59

## Input // repeat for MEKIPVSAFLLLVALSYTLARDTTVKPGAKKDTKDSRPKLPQTLSRGWGDQLIWTQTYEEALYKSKTSNKPLMIIHHLDECPHSQALKKVFAENKEIQKLAEQFVLLNLVYETTDKHLSPDGQYVPRIMFVDPSLTVRADITGRYSNRLYAYEPADTALLLDNMKKALKLLKTEL [AGR2] and report
## Output 0.49

## Input Same read-out for MDAWVRFSAQSQARERLCRAAQYACSLLGHALQRHGASPELQKQIRQLESHLSLGRKLLRLGNSADALESAKRAVHLSDVVLRFCITVSHLNRALYFACDNVLWAGKSGLAPRVDQEKWAQRSFRYYLFSLIMNLSRDAYEIRLLMEQESSACSRRLKGSGGGVPGGSETGGLGGPGTPGGGLPQLALKLRLQVLLLARVLRGHPPLLLDVVRNACDLFIPLDKLGLWRCGPGIVGLCGLVSSILSILTLIYPWLRLKP [PEX11B] ?
## Output -0.779
